The measurements presented in this section are drawn from paper PMC11952222.

As shown below, each of these compounds has a reported per_control_1000nM FLT3(D835V) value.
assayed.system: FLT3(D835V) (Homo sapiens, UniProt P36888, D835V)
Construct: purchased Eurofins/DiscoverX
experimental.details: Eurofins/DiscoverX cell free kinase assay, percent control
Type: binding
run.parameters: 1000 nM compound

# structure, assayed.system, per_control_1000nM FLT3(D835V) (percent control)
records = [
    ("CC(C)(C)c1ccc(C(=O)Nc2cc(-c3ccccc3)n[nH]2)cc1", "FLT3(D835V) (Homo sapiens, UniProt P36888, D835V)", 2.5),
    ("COc1ccc(-c2cc(NC(=O)c3ccc(C(C)(C)C)cc3)[nH]n2)cc1", "FLT3(D835V) (Homo sapiens, UniProt P36888, D835V)", 0.9),
    ("Cc1cc(-c2cc(NC(=O)c3ccc(C(C)(C)C)cc3)[nH]n2)ccn1", "FLT3(D835V) (Homo sapiens, UniProt P36888, D835V)", 0.5),
    ("Cn1cc(-c2cc(NC(=O)c3ccc(C(C)(C)C)cc3)n[nH]2)ccc1=O", "FLT3(D835V) (Homo sapiens, UniProt P36888, D835V)", 1.3),
]

* * *

assayed.system: PDGFRB (Homo sapiens)
Construct: purchased Eurofins/DiscoverX
Sequence (P09619 33-1106): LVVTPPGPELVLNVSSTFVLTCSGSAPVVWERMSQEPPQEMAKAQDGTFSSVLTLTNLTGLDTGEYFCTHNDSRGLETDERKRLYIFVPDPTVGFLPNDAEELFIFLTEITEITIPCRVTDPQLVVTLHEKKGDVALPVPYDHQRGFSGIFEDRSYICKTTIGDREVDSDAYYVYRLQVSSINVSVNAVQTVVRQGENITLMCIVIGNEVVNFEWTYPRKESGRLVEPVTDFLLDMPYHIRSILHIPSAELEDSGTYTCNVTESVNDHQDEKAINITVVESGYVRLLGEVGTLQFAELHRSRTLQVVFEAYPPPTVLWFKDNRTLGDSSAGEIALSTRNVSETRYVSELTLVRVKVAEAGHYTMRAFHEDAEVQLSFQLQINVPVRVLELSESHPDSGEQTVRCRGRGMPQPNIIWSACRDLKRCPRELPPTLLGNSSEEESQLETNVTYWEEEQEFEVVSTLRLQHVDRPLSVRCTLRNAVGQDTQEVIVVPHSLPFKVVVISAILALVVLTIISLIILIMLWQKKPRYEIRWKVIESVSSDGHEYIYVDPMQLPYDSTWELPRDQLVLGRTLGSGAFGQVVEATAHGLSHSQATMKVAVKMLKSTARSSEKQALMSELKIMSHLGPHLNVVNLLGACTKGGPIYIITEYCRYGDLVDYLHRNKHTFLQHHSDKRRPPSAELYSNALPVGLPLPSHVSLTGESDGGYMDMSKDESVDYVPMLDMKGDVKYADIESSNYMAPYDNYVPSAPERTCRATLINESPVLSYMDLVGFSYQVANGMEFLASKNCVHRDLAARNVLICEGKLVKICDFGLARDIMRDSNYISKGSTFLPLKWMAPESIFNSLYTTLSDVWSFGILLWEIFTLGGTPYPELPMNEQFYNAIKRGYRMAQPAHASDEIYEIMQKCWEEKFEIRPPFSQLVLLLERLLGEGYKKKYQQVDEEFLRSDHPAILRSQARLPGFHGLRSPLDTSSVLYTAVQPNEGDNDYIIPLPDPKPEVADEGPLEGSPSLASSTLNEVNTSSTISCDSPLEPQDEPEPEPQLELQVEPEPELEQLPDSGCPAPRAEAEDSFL
experimental.details: Eurofins/DiscoverX cell free kinase assay, percent control
Format: binding
run.parameters: 10000 nM compound

# structure, per_control_10000nM PDGFRB, percent control
rows = [
    ("COc1ccc(-c2cc(NC(=O)c3ccc(C(C)(C)C)cc3)[nH]n2)cc1", 0),
    ("CC(C)(C)c1ccc(C(=O)Nc2cc(-c3ccccc3)n[nH]2)cc1", 0),
    ("Cc1cc(-c2cc(NC(=O)c3ccc(C(C)(C)C)cc3)[nH]n2)ccn1", 0),
    ("Cn1cc(-c2cc(NC(=O)c3ccc(C(C)(C)C)cc3)n[nH]2)ccc1=O", 0.35),
]

* * *

assayed.system: FLT3 (Homo sapiens, UniProt P36888)
Construct: purchased Eurofins/DiscoverX
experimental.details: Eurofins/DiscoverX cell free kinase assay, percent control
Type: binding
run.parameters: 10000 nM compound
As shown below, each of these molecules has a reported per_control_10000nM FLT3 value.
readout.label: per_control_10000nM FLT3

# molecule, reading
measured = [
    ("Cc1cc(-c2cc(NC(=O)c3ccc(C(C)(C)C)cc3)[nH]n2)ccn1 [Compound 3i-1246]", "0.2 percent control"),
    ("CC(C)(C)c1ccc(C(=O)Nc2cc(-c3ccccc3)n[nH]2)cc1 [Compound 3i-1247]", "0 percent control"),
    ("Cn1cc(-c2cc(NC(=O)c3ccc(C(C)(C)C)cc3)n[nH]2)ccc1=O [Compound 3i-1248]", "0.15 percent control"),
    ("COc1ccc(-c2cc(NC(=O)c3ccc(C(C)(C)C)cc3)[nH]n2)cc1 [Compound 3i-1103]", "0 percent control"),
]

* * *

assayed.system: UniProtKB P09619
readout.label: IC50 (nM)

# molecule, reading
measured = [
    ("CC(C)(C)c1ccc(C(=O)Nc2cc(-c3ccccc3)n[nH]2)cc1 [Compound 3i-1247]", 3.4),
]

* * *

assayed.system: FLT3_autoinhibited (Homo sapiens)
Construct: purchased Eurofins/DiscoverX
experimental.details: Eurofins/DiscoverX cell free kinase assay, percent control
Type: binding
run.parameters: 1000 nM compound

# molecule, assayed.system, per_control_1000nM FLT3_autoinhibited
rows = [
    ("Cn1cc(-c2cc(NC(=O)c3ccc(C(C)(C)C)cc3)n[nH]2)ccc1=O [Compound 3i-1248]", "FLT3_autoinhibited (Homo sapiens)", "63 percent control"),
    ("CC(C)(C)c1ccc(C(=O)Nc2cc(-c3ccccc3)n[nH]2)cc1 [Compound 3i-1247]", "FLT3_autoinhibited (Homo sapiens)", "1.1 percent control"),
    ("Cc1cc(-c2cc(NC(=O)c3ccc(C(C)(C)C)cc3)[nH]n2)ccn1 [Compound 3i-1246]", "FLT3_autoinhibited (Homo sapiens)", "0 percent control"),
    ("COc1ccc(-c2cc(NC(=O)c3ccc(C(C)(C)C)cc3)[nH]n2)cc1 [Compound 3i-1103]", "FLT3_autoinhibited (Homo sapiens)", "1.8 percent control"),
]
